# Lookup of reported half-life keyed by entry
# test name: In vitro metabolic stability, rat liver microsomes
# Assay type: in vitro ADME
# protocol conditions: 1 mg/mL liver microsome protein, 37° C., read-out: Metabolism in rat liver microsome T½ min
measurement type: half-life

- compound: "CN(C(=O)OCc1ocnc1-c1ccc(O[C@H]2CCC[C@H](C(=O)O)C2)cc1)C1CCCC1 (racemic) [Compound 8]"
  measurement type: "half-life"
  reported measurement: "> 30 min"
- compound: "CN(C(=O)OCc1c(-c2ccc(O[C@H]3CCC[C@H](C(=O)O)C3)c(C(F)(F)F)n2)cnn1C)C1CCCC1 (racemic) [Compound 13]"
  measurement type: "half-life"
  reported measurement: "17.2 min"
- compound: "CN(C(=O)OCc1c(-c2ccc(O[C@H]3CCC[C@H](C(=O)O)C3)c(F)n2)cnn1C)C1CCCC1 (racemic) [Compound 62]"
  measurement type: "half-life"
  reported measurement: "~30 min"
- compound: "Cc1onc(-c2ccc(O[C@H]3CCC[C@H](C(=O)O)C3)cc2)c1COC(=O)N(C)C1CCCC1 (racemic) [Compound 7]"
  measurement type: "half-life"
  reported measurement: "2.81 min"
- compound: "Cc1nc(-c2cnn(C)c2COC(=O)N(C)C2CCCC2)cnc1O[C@H]1CCC[C@H](C(=O)O)C1 (racemic) [Compound 66]"
  measurement type: "half-life"
  reported measurement: "93.4 min"
- compound: "Cc1nc(-c2cnn(C)c2COC(=O)N(C)C2CCCC2)ccc1O[C@H]1CCC[C@H](C(=O)O)C1 (racemic) [Compound 16]"
  measurement type: "half-life"
  reported measurement: "109 min"
- compound: "CN(C(=O)OCc1c(-c2ccc(O[C@H]3CCC[C@H](C(=O)O)C3)c(F)c2)cnn1C)C1CCCC1 (racemic) [Compound 20]"
  measurement type: "half-life"
  reported measurement: "> 30 min"
